The origin of these recorded values is ChEMBL document CHEMBL3585263.

- test: Chemical stability of the compound in pH 10 carbonate buffer assessed as compound remaining at 60 degC after 4 weeks by HPLC analysis
- Format: physicochemical
- test settings: read-out: Stability
value kind: remaining at 672 h (%)
Reply with just the number (in %).

Ask: Answer with the recorded remaining at 672 h for the compound listed here: Cc1cc(C)nc(N2C[C@H]3CN(C(=O)c4c(F)cccc4-n4nccn4)C[C@H]3C2)n1
Reply: 102

====

- test: Chemical stability of the compound in pH 10 carbonate buffer assessed as compound remaining at 60 degC after 1 week by HPLC analysis
- Assay type: physicochemical
- test settings: read-out: Stability
value kind: remaining at 168 h (%)
Reply with just the number (in %).

Ask: Answer with the recorded remaining at 168 h for the compound listed here: Cc1cc(C)nc(N2C[C@H]3CN(C(=O)c4c(F)cccc4-n4nccn4)C[C@H]3C2)n1
Reply: 102
